test.system: CaMKIIα (Rattus norvegicus, UniProt P11275)
Construct: made in house; host or cells: baculovirus/Sf9 (CaMKII); bacteria (CaM)
protocol: CaMKII activity assay, phosphorylation of syntide 2
Format: biochemical
run.conditions: in vitro [γ-32P]ATP assay, substrate syntide 2, 30°C; approximate values (Figs. 1C, 4B, 6); read-out: IC50 of inhibition of CaMKII phosphorylation of syntide 2
recorded.endpoint: IC50

{"columns": ["substance", "test.value"],
 "data": [
  ["Ac-KRAPKLGQIGRVKAVDIED-NH2 [CN19a2v V16D]", "~1 nM"],
  ["Ac-KRPPKLGQIGRSKRVVIEDD-NH2 [CN20]", "~100 nM"]
]}

# evaluate next
input: Returns the measured IC50 for the input substance. Input: Ac-KRAPKLGQIGRQKAVVIED-NH2 [CN19a2v V12Q]
output: ~1 nM

###

The entries below come with measured IC50 values attached.
test.system: CaMKIIα (Rattus norvegicus, UniProt P11275)
Construct: made in house; host or cells: baculovirus/Sf9 (CaMKII); bacteria (CaM)
protocol: CaMKII activity assay, phosphorylation of syntide 2
Format: biochemical
run.conditions: values compared from Figs. 1, 4 and 7; read-out: CaMKII IC50 (Fig. S5 table and legend)
// units = nM; emit number, no label

{"columns": ["substance", "result.units", "IC50"],
 "data": [
  ["Ac-KRAPKLGQIGRQKAVDIED-NH2 [CN19o]", "nM", 0.4],
  ["Ac-KRPPKLGQIGRSKRVVIED-NH2 [CN19]", "nM", 100]
]}

input: Returns the measured IC50 for the input substance. Input: Ac-KRAPKLGQIGRVKAVVIED-NH2 [CN19a2v]
output: 20

###

test.system: CaMKIα (Mus musculus)
Construct: purchased SignalChem
protocol: CaMKI activity assay
Type: biochemical
run.conditions: 2.5 nM CaMKIα, 3 min, syntide 2; curve fit with Hill coefficient set as 1 (Fig. S5); read-out: IC50 of CaMKI inhibition
recorded.endpoint: pIC50
pIC50 (log units): -log10 of the concentration in mol/L.

For orientation, consider the following solved cases.
{"columns": ["substance", "recorded.endpoint", "test.value"],
 "data": [
  ["Ac-KRPPKLGQIGRSKRVVIED-NH2 [CN19]", "pIC50", 4.44],
  ["Ac-KRAPKLGQIGRVKAVVIED-NH2 [CN19a2v]", "pIC50", 4.74]
]}

# evaluate next
input: Returns the measured pIC50 for the input substance. Input: Ac-KRAPKLGQIGRQKAVDIED-NH2 [CN19o]
output: 4.42

###

The entries below come with measured IC50 values attached.
test.system: CaMKIIα (Rattus norvegicus, UniProt P11275)
Construct: made in house; host or cells: baculovirus/Sf9 (CaMKII); bacteria (CaM)
protocol: CaMKII activity assay, phosphorylation of syntide 2
Assay type: biochemical
run.conditions: class estimated from syntide 2 phosphorylation at 0.3 and 0.1 µM peptide; Ala scan peptides not N-acetylated / C-amidated; read-out: IC50 [μM] (Ala scan of CN19, Fig. 2)
Ends that are not written are not given here.

input: Write down the reported IC50 of H-KRPPKLGQIGRSKRVAIED-OH [V16A] , test system: CaMKIIα (Rattus norvegicus, UniProt P11275).
output: ~0.1 µM

input: Write down the reported IC50 of KRPPKLGQIGRSKAVVIED [R14A] , test system: CaMKIIα (Rattus norvegicus, UniProt P11275).
output: < 0.1 µM

input: Write down the reported IC50 of KRPPKLGQIGRSKRVVIAD [E18A] , test system: CaMKIIα (Rattus norvegicus, UniProt P11275).
output: < 0.3 µM

input: Write down the reported IC50 of KRPPKLGQIGRSARVVIED [K13A] , test system: CaMKIIα (Rattus norvegicus, UniProt P11275).
output: < 0.1 µM

input: Write down the reported IC50 of KRPPKLGQAGRSKRVVIED [I9A] , test system: CaMKIIα (Rattus norvegicus, UniProt P11275).
output: > 0.3 µM
